assayed_target: T1, recombinant human BAFF-Fc (Sino Biological) (human, UniProt Q9Y275 134-285)
T1 construct: Bought reagent; also called hBAFF; not shown: Fc moiety detected by anti-human Fc
T1 sequence (Q9Y275 134-285): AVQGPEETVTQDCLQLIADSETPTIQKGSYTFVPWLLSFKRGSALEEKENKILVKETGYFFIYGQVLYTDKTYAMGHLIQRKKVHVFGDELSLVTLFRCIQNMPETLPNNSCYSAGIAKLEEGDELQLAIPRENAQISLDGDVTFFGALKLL
experimental_details: ELISA, purified monomeric VNAR on coated BAFF-Fc, anti-FLAG detection
property_measured: pEC50
Answers are plain numbers, as −log10 of the molar value.

ID2-101B12 (VNAR, Nurse shark VNAR single domain, monomer) VNAR: AARVDQTPQTITKETGESLTINCVLRDSNCALSSTYWYRKKSGSTNEESISKGGRYVETVNSGSKSFSLRINDLTVEDSGTYRCKVFIDPLLCSRDALGFSDVYGDGTAVTVNA; 8.57
ID2-101B05 (VNAR, Nurse shark VNAR single domain, monomer) VNAR: AARVDQTPRSVTKETGESLTINCVLRDSICALSSTHWYRKKSGSTNEESISKGGRYVETVNSGSKSFSLRINDLTVEDSGTYRCKVNHDLLTSSRRCQSQIKDVYGGGTVVTVNA; 7.93
ID2-101B10 (VNAR, Nurse shark VNAR single domain, monomer) VNAR: AARVDQTPQTITKETGESLTINCVLRDSNCALSSTYWYRKKSGSTNEESISKGGRYVETVNSGSKSFSLRINDLTVEDSGTYRCKVRIDPLLCNASYVKWDDVYGGGTVVTVNA; 9.00

Continue with the next binder.
# input Consider the binder ID2-101A09 (VNAR, Nurse shark VNAR single domain, monomer) VNAR: AARVDQTPQTITKETGESLTINCVLRDNNCALSTTYWYRKKSGSTNEESISKGGRYVETVNSGSKSFSLRINDLTVEDSGTYRCKVREDPLMCRYYLDRYRDVYGGGTVVTVNA and give its measured pEC50.
# output 8.31
